- Substrate: Nc1ncnc2c1ncn2[C@@H]1O[C@H](COP(=O)(O)OP(=O)(O)OP(=O)(O)O)[C@@H](O)[C@H]1O
- PROTOCOL: purified protein
- Format: biochemical, Saccharolobus solfataricus
- TEST_PARAMETERS: with ssDNA; labelled compound
EXPERIMENTAL_ENDPOINT: kcat (s⁻¹)

- PROTEIN: "SsoRadA (Sulfolobus solfataricus RadA) (Saccharolobus solfataricus P2) (protein, purified recombinant protein; homo-oligomeric nucleoprotein filament on ssDNA; F73, R72, R83 given) MSNEVEQKKNIKTINDLPGISQTVINKLIEAGYSSLETLAVASPQDLSVAAGIPLSTAQKIIKEARDALDIRFKTALEVKKERMNVKKISTGSQALDGLLAGGIETRTMTEFFGEFGSGKTQLCHQLSVNVQLPPEKGGLSGKAVYIDTEGTFRWERIENMAKALGLDIDNVMNNIYYIRAINTDHQIAIVDDLQELVSKDPSIKLIVVDSVTSHFRAEYPGRENLAVRQQKLNKHLHQLTRLAEVYDIAVIITNQVMARPDMFYGDPTVAVGGHTLYHVPGIRIQLKKSRGNRRIARVVDAPHLPEGEVVFALTEEGIRDAEE"
  EXPERIMENTAL_ENDPOINT: "kcat"
  REPORTED: 0.000617
- PROTEIN: "SsoRadA (Sulfolobus solfataricus RadA) (Saccharolobus solfataricus P2; R72G) (protein, purified recombinant protein; homo-oligomeric nucleoprotein filament on ssDNA; F73, R72, R83 given) MSNEVEQKKNIKTINDLPGISQTVINKLIEAGYSSLETLAVASPQDLSVAAGIPLSTAQKIIKEARDALDIGFKTALEVKKERMNVKKISTGSQALDGLLAGGIETRTMTEFFGEFGSGKTQLCHQLSVNVQLPPEKGGLSGKAVYIDTEGTFRWERIENMAKALGLDIDNVMNNIYYIRAINTDHQIAIVDDLQELVSKDPSIKLIVVDSVTSHFRAEYPGRENLAVRQQKLNKHLHQLTRLAEVYDIAVIITNQVMARPDMFYGDPTVAVGGHTLYHVPGIRIQLKKSRGNRRIARVVDAPHLPEGEVVFALTEEGIRDAEE"
  EXPERIMENTAL_ENDPOINT: "kcat"
  REPORTED: 0.000267
- PROTEIN: "SsoRadA (Sulfolobus solfataricus RadA) (Saccharolobus solfataricus P2; R72P) (protein, purified recombinant protein; homo-oligomeric nucleoprotein filament on ssDNA; F73, R72, R83 given) MSNEVEQKKNIKTINDLPGISQTVINKLIEAGYSSLETLAVASPQDLSVAAGIPLSTAQKIIKEARDALDIPFKTALEVKKERMNVKKISTGSQALDGLLAGGIETRTMTEFFGEFGSGKTQLCHQLSVNVQLPPEKGGLSGKAVYIDTEGTFRWERIENMAKALGLDIDNVMNNIYYIRAINTDHQIAIVDDLQELVSKDPSIKLIVVDSVTSHFRAEYPGRENLAVRQQKLNKHLHQLTRLAEVYDIAVIITNQVMARPDMFYGDPTVAVGGHTLYHVPGIRIQLKKSRGNRRIARVVDAPHLPEGEVVFALTEEGIRDAEE"
  EXPERIMENTAL_ENDPOINT: "kcat"
  REPORTED: 0.000267

Measured values drawn from paper PMC2654063 for this set.
